# System: MCF7 (breast)
# Experiment Summary: In vitro cytotoxic activity (MTT) assay, MCF7
# Type: cell-based
# Run Conditions: Homo sapiens; MCF7 (breast) cells, exposed for 96 hours; read-out: Cytotoxicity activity IC50 (50% inhibition of cell proliferation)
Measured Parameter: IC50 (µM)
Your answer should be a plain number; it is taken to be in µM.

stdin: Quick check: IC50 on MCF7 (breast), item O=C(O)c1cnn2c1nc(Nc1cccc(Cl)c1)c1ccncc12 ?
stdout: 5.2

====

# Target Under Test: recombinant human CK2 (RRBB-holoenzyme) (Homo sapiens, UniProt P68400)
# Sequence (P68400 whole entry): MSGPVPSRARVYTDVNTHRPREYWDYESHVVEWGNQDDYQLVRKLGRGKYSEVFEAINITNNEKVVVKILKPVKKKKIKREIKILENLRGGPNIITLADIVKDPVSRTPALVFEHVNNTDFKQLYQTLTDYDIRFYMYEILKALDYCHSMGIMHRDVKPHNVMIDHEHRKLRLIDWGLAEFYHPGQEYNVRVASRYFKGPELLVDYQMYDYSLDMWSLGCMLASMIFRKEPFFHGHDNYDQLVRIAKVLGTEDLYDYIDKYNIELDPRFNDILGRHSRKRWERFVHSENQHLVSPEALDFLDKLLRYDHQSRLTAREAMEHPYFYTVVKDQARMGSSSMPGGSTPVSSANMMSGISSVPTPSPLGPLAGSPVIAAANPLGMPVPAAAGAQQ
# Sequence (P67870 whole entry partner): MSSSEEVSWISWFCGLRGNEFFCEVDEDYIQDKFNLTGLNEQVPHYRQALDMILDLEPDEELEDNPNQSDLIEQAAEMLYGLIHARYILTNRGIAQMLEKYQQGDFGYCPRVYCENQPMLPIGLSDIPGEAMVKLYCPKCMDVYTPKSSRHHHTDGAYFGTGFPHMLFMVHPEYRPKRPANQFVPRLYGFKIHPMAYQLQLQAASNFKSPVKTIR
# Experiment Summary: CK2 Kinase Assay (33P-ATP, filter plate)
# Run Conditions: final ATP concentration 15 μM, 10 min at 30° C., eight concentrations; read-out: protein kinase CK2 inhibition IC50
# Experimental: CK2 Kinase Assay was conducted using the protocol as described in Pierre F. et al; J. Med. Chem. 2011, 54, 635-654. […]
Measured Parameter: IC50 (nM)
Your answer should be a plain number; it is taken to be in nM.

stdin: Please look up its IC50: O=C(O)c1cnn2c1nc(Nc1cccc(Cl)c1)c1ccncc12
stdout: 96
